B1: Protein piccolo, residues 1058 to 1114; numbered along this chain, Q9Y6V0 (parent)
chain: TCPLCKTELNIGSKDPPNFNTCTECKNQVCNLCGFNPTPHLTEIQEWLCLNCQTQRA

variants of: B1; test: abundance fitness (aPCA) (normalised: wild type 0, dead -1); higher = more abundant; growth selection in yeast, the domain comes from the species named; conditions: Homo sapiens
Observation Type: abundance fitness
The answer should be written as a number, with no unit following it.

The value of abundance fitness measured for the variant TCPLCKTELNIGSKDPPNFNTCTECKNQVCNLCGFNPTPHLTEIQGWLCLNCQTQRA [E46G] turned out to be -0.042

The value of abundance fitness measured for the variant TCPLCKTELMIGSKDPPNFNTCTECKNQVCNLCGFNPTPHLTEIQEWLCLNCQTQRA [N10M] turned out to be 0.042

The value of abundance fitness measured for the variant TCPLCKTELNIGSKYPPNFNTCTECKNQVCNLCGFNPTPHLTEIQEWLCLNCQTQRA [D15Y] turned out to be 0.124

The value of abundance fitness measured for the variant TCPLCKAELNIGSKDPPNFNTCTECKNQVCNLCGFNPTPHLTEIQEWLCLNCQTQRA [T7A] turned out to be -0.063

The value of abundance fitness measured for the variant TCPLCKTELNIGSKDPPNFNTCTECKNQVCNLCGFNPTPHLTEIQEWHCLNCQTQRA [L48H] turned out to be -0.177
